Test system: MHHES1
test-summary: Cell proliferation Ex.3
Assay type: cell-based
experimental-parameters: Homo sapiens, MHH-ES-1; MHHES1, 72 h
pIC50: −log10 of the molar value.
measure-name: pIC50

>  <molecule>
C#C[C@]1(CO)O[C@@H](n2cc(F)c(N)nc2=O)C[C@@H]1O [compound 9]

>  <experimental-system>
MHHES1

>  <value-reported>
< 5.00

$$$$

====

Test system: HS729
test-summary: Cell proliferation Ex.3
Format: cell-based
experimental-parameters: HS729, 120 h

>  <molecule>
C#C[C@]1(CO)O[C@@H](n2cc(F)c(N)nc2=O)C[C@@H]1O [compound 9]

>  <IC50>
> 10 µM

$$$$

====

System: cancer cell lines
test-summary: Cancer cell proliferation activity of representative nucleosides, CellTiterGlo 72 h (Example 7, Tables 8 and 9)
Type: cell-based
experimental-parameters: Homo sapiens, MDA-MB-435, 72 h, MDAMB435, 72 h (Table 9)
pIC50: −log10 of the molar value.
Listed here: items and their measured pIC50.

>  <compound>
Cc1cn([C@H]2C[C@H](O)[C@@](C#N)(CO)O2)c(=O)[nH]c1=O [compound 31]

>  <pIC50>
< 4.30

$$$$
>  <compound>
C#C[C@]1(CO)O[C@@H](n2cnc3c(N)nc(F)nc32)C[C@@H]1O [Islatravir (EFdA), Islatravir, reference compound]

>  <pIC50>
< 4.30

$$$$
>  <compound>
Nc1ccn([C@H]2C[C@H](O)[C@](CO)(CF)O2)c(=O)n1 [compound 32]

>  <pIC50>
5.89

$$$$
>  <compound>
Nc1nc(=O)n([C@@H]2C=C[C@H](CO)O2)cc1F [Elvucitabine, reference compound]

>  <pIC50>
< 4.30

$$$$

====

Listed here: items and their measured pIC50.
Test system: cancer cell lines
test-summary: Cancer cell proliferation activity of representative nucleosides, CellTiterGlo 72 h (Example 7, Tables 8 and 9)
Type: cell-based
experimental-parameters: Homo sapiens, NCI-H23, 72 h, NCI-H23, 72 h (Table 9)
pIC50: −log10 of the molar value.

>  <compound>
Cc1cn([C@H]2C[C@H](O)[C@@](C#N)(CO)O2)c(=O)[nH]c1=O [compound 31]

>  <op>
=

>  <pIC50>
5.39

$$$$
>  <compound>
Nc1ccn([C@H]2C[C@H](O)[C@](CO)(CF)O2)c(=O)n1 [compound 32]

>  <op>
=

>  <pIC50>
6.14

$$$$
>  <compound>
C#C[C@]1(CO)O[C@@H](n2cnc3c(N)nc(F)nc32)C[C@@H]1O [Islatravir (EFdA), Islatravir, reference compound]

>  <op>
=

>  <pIC50>
5.53

$$$$
>  <compound>
Nc1nc(=O)n([C@@H]2C=C[C@H](CO)O2)cc1F [Elvucitabine, reference compound]

>  <op>
<

>  <pIC50>
4.30

$$$$

====

Listed here: items and their measured IC50.
System: cancer cell lines
test-summary: Cancer cell proliferation activity of representative nucleosides, CellTiterGlo 72 h (Example 7, Tables 8 and 9)
Type: cell-based
experimental-parameters: 72 h, JAR, placenta
measure-name: IC50

>  <chemical-structure>
C#C[C@]1(CO)O[C@@H](n2cc(F)c(=O)[nH]c2=O)C[C@@H]1O

>  <value-reported>
> 50 µM

$$$$
>  <chemical-structure>
C#C[C@]1(CO)O[C@@H](n2cnc3c(=O)[nH]c(N)nc32)C[C@@H]1O

>  <value-reported>
> 50 µM

$$$$
>  <chemical-structure>
CC[C@]1(CO)O[C@@H](n2cnc3c(N)nc(N)nc32)C[C@@H]1O

>  <value-reported>
> 50 µM

$$$$
>  <chemical-structure>
CC[C@]1(CO)O[C@@H](n2ccc(N)nc2=O)C[C@@H]1O

>  <value-reported>
> 50 µM

$$$$
>  <chemical-structure>
C#C[C@]1(CO)O[C@@H](n2cc(F)c(N)nc2=O)C[C@@H]1O

>  <value-reported>
7.25 µM

$$$$
>  <chemical-structure>
C#C[C@]1(CO)O[C@@H](n2ccc(N)nc2=O)C[C@@H]1O

>  <value-reported>
> 50 µM

$$$$
>  <chemical-structure>
C[C@]1(CO)O[C@@H](n2ccc(N)nc2=O)C[C@@H]1O

>  <value-reported>
5.24 µM

$$$$
>  <chemical-structure>
N#C[C@]1(CO)O[C@@H](n2ccc(N)nc2=O)C[C@@H]1O

>  <value-reported>
> 50 µM

$$$$

====

Tested on: cancer cell lines
test-summary: Cancer cell proliferation activity of representative nucleosides, CellTiterGlo 72 h (Example 7, Tables 8 and 9)
Assay type: cell-based
experimental-parameters: 72 h, 5637, bladder, 72 h
pIC50: −log10 of the molar value.
Yes means recorded pIC50 is 6 or above; No means it is below 6.

>  <chemical-structure>
C#C[C@]1(CO)O[C@@H](n2cnc3c(=O)[nH]c(N)nc32)C[C@@H]1O

>  <group-label>
No

$$$$
>  <chemical-structure>
N#C[C@]1(CO)O[C@@H](n2ccc(N)nc2=O)C[C@@H]1O

>  <group-label>
Yes

$$$$
>  <chemical-structure>
C[C@]1(CO)O[C@@H](n2ccc(N)nc2=O)C[C@@H]1O

>  <group-label>
Yes

$$$$
>  <chemical-structure>
C#C[C@]1(CO)O[C@@H](n2cc(F)c(=O)[nH]c2=O)C[C@@H]1O

>  <group-label>
Yes

$$$$
>  <chemical-structure>
CC[C@]1(CO)O[C@@H](n2ccc(N)nc2=O)C[C@@H]1O

>  <group-label>
No

$$$$
>  <chemical-structure>
CC[C@]1(CO)O[C@@H](n2cnc3c(N)nc(N)nc32)C[C@@H]1O

>  <group-label>
No

$$$$

====

Tested on: UO31
test-summary: Cell proliferation Ex.3
Format: cell-based
experimental-parameters: Homo sapiens, UO-31; UO31, 168 h

>  <compound>
C#C[C@]1(CO)O[C@@H](n2cc(F)c(N)nc2=O)C[C@@H]1O [compound 9]

>  <IC50>
> 10 µM

$$$$

====

System: NCI-H23
test-summary: Cell proliferation Ex.3
Type: cell-based
experimental-parameters: Homo sapiens, NCI-H23, 72 h
pIC50: −log10 of the molar value.
measure-name: pIC50

>  <chemical-structure>
C#C[C@]1(CO)O[C@@H](n2cc(F)c(N)nc2=O)C[C@@H]1O

>  <experimental-system>
NCI-H23

>  <measure-name>
pIC50

>  <value-reported>
< 5.00

$$$$

====

Test system: cancer cell lines
test-summary: Cancer cell proliferation activity of representative nucleosides, CellTiterGlo 72 h (Example 7, Tables 8 and 9)
Format: cell-based
experimental-parameters: Homo sapiens, JIMT-1, 72 h, JIMT1, 72 h (Table 9)
pIC50: −log10 of the molar value.
measure-name: pIC50

>  <molecule>
Nc1nc(=O)n([C@@H]2C=C[C@H](CO)O2)cc1F [Elvucitabine, reference compound]

>  <op>
=

>  <value-reported>
5.07

$$$$
>  <molecule>
C#C[C@]1(CO)O[C@@H](n2cnc3c(N)nc(F)nc32)C[C@@H]1O [Islatravir (EFdA), Islatravir, reference compound]

>  <op>
=

>  <value-reported>
5.80

$$$$
>  <molecule>
Nc1ccn([C@H]2C[C@H](O)[C@](CO)(CF)O2)c(=O)n1

>  <op>
=

>  <value-reported>
6.72

$$$$
>  <molecule>
Cc1cn([C@H]2C[C@H](O)[C@@](C#N)(CO)O2)c(=O)[nH]c1=O

>  <op>
<

>  <value-reported>
4.30

$$$$

====

System: HCT116
test-summary: Cell proliferation Ex.3
Type: cell-based
experimental-parameters: Homo sapiens, HCT-116; HCT116, 168 h
pIC50: −log10 of the molar value.

>  <compound>
C#C[C@]1(CO)O[C@@H](n2cc(F)c(N)nc2=O)C[C@@H]1O [compound 9]

>  <pIC50>
< 5.00

$$$$

====

System: SKMEL28
test-summary: Cell proliferation Ex.3
Format: cell-based
experimental-parameters: Homo sapiens, SK-MEL-28; SKMEL28, 120 h
pIC50: −log10 of the molar value.

>  <compound>
C#C[C@]1(CO)O[C@@H](n2cc(F)c(N)nc2=O)C[C@@H]1O [compound 9]

>  <experimental-system>
SKMEL28

>  <pIC50>
< 5.00

$$$$

====

Test system: SNU-216
test-summary: Cell proliferation CellTiterGlo Ex.2
Assay type: cell-based
experimental-parameters: SNU-216 (Stomach), 72 h
measure-name: IC50 (nM)

>  <molecule>
C#C[C@]1(CO)O[C@@H](n2cnc3c(=O)[nH]c(N)nc32)C[C@@H]1O [compound 13]

>  <quantity-unit>
nM

>  <value-reported>
1740

$$$$

====

Tested on: BT20
test-summary: Cell proliferation Ex.3
Format: cell-based
experimental-parameters: Homo sapiens, BT-20; BT20, 72 h
pIC50: −log10 of the molar value.
measure-name: pIC50

>  <chemical-structure>
C#C[C@]1(CO)O[C@@H](n2cc(F)c(N)nc2=O)C[C@@H]1O

>  <measure-name>
pIC50

>  <value-reported>
< 5.00

$$$$
